target: UniProt Q9GZU1; assay: Fluorescent TRPML1 assay (Fluo4-AM calcium fluorescence in doxycycline-induced HEK-293 Trex cells); assay type: cell-based; settings: fluorescent calcium assay
Measured EC50 accompanies every entry in the list below.

Known results for compounds:
• C[C@H]1CN(C(=O)OC(C)(C)C)CCN1c1nccc2c1c(C1CC1)cn2-c1cc(C#N)ccn1 [Compound 446] = < 100 nM
• CC(C)(C)OC(=O)N1CCN(c2ncnc3c2c(C2CC2)cn3-c2cc(F)cc(F)c2)C[C@@H]1C(F)(F)F [Compound 276] = < 100 nM
• C[C@H]1CN(C(=O)OC(C)(C)C)CCN1c1ncnc2c1c(C1CC1)nn2-c1cc(C#N)ccn1 [Compound 343] = 500 to 2000 nM
• CC(C)(C)OC(=O)N1CCN(c2ncnc3c2c(-c2cccnc2)cn3-c2cccc(Cl)c2)CC1 [Compound 102] = < 100 nM
• C[C@H]1CN(C(=O)OC(C)(C)C)CCN1c1ncnc2c1c(C1CC1)cn2-c1cc(C#N)cnn1 [Compound 439] = 100 to 500 nM
• C[C@H]1CN(C(=O)OC(C)(C)C)CCN1c1ncnc2c1c(C1CC1)cn2-c1cccc(Cl)c1 [Compound 139] = < 100 nM

The compound listed as C[C@H]1CN(C(=O)OC(C)(C)C)CCN1c1ncnc2c1c(C1CCOCC1)cn2-c1cc(F)cc(F)c1 [Compound 468] shows EC50 equal to 100 to 500 nM

The compound listed as C[C@@H]1CN(C(=O)OC(C)(C)C)CCN1c1ncnc2c1c(C1CC1)cn2-c1cccc(OC(F)(F)F)c1 [Compound 195] shows EC50 equal to 100 to 500 nM

The compound listed as C[C@H]1CN(C(=O)OC(C)(C)C)CCN1c1ncnc2c1c(C1CC1)cn2C1CCOCC1 [Compound 340] shows EC50 equal to 500 to 2000 nM

The compound listed as C[C@H]1CN(C(=O)OC(C)(C)C)CCN1c1ncnc2c1c(N1CCOCC1)cn2-c1cccc(Cl)c1 [Compound 230] shows EC50 equal to 100 to 500 nM

The compound listed as CC[C@@H]1CN(c2ncnc3c2c(C2CC2)cn3-c2cc(F)cc(F)c2)CCN1C(=O)OC(C)(C)C [Compound 256] shows EC50 equal to < 100 nM

The compound listed as C[C@H]1CN(C(=O)OC(C)(C)C)CCN1c1ncnc2c1c(C1=CCOCC1)cn2-c1cc(F)cc(F)c1 [Compound 473] shows EC50 equal to 100 to 500 nM

The compound listed as CCN(CC)c1cn(-c2cc(C#N)ccn2)c2ncnc(N3CCN(C(=O)OC(C)(C)C)[C@H](C)C3)c12 [Compound 425] shows EC50 equal to < 100 nM

The compound listed as CC(C)(C)OC(=O)N1CCN(c2ncnc3c2c(C2CC2)cn3-c2cc(F)cc(F)c2)C[C@@H]1C(F)F (single isomer, unassigned) [Compound 315] shows EC50 equal to 500 to 2000 nM

====

target: TRPML1 (Homo sapiens); assay: Fluorescent TRPML1 assay (Fluo4-AM calcium fluorescence in doxycycline-induced HEK-293 Trex cells); format: cell-based; details: fluorescent calcium assay
pEC50: −log10 of the molar value.
Measured pEC50 accompanies every entry in the list below.

- Cc1cncc(-n2cc(-c3cccnc3)c3c(N4CCN(C(=O)OC(C)(C)C)C[C@@H]4C)ncnc32)c1: 5.70 to 6.30
- CC(C)(C)OC(=O)N1CCN(c2ncnc3c2c(C2CC2)cn3-c2cc(F)cc(F)c2)CC12CC2: > 7.00
- C[C@H]1CN(C(=O)OC(C)(C)C)CCN1c1ncnc2c1c(C1CC1)cn2-c1nccc(C#N)n1: 6.30 to 7.00

Then this compound:
Summary: C[C@H]1CN(C(=O)OC(C)(C)C)CCN1c1ncnc2c1c(C1CC1)cn2-c1cc(C#N)cc(OC(F)(F)F)c1 , TRPML1 (Homo sapiens), pEC50 = 6.30 to 7.00

====

Measured pEC50 accompanies every entry in the list below.
target: TRPML1 (Homo sapiens); assay: Fluorescent TRPML1 assay (Fluo4-AM calcium fluorescence in doxycycline-induced HEK-293 Trex cells); assay type: cell-based; details: fluorescent calcium assay
pEC50: −log10 of the molar value.

Known results for compounds:
- CCN(CC)c1cn(-c2cccc(Cl)c2)c2ncnc(N3CCN(C(=O)OC(C)(C)C)C[C@@H]3C)c12: > 7.00
- C[C@@H]1CN(C(=O)OC(C)(C)C)CCN1c1ncnc2c1c(C1CCOCC1)cn2-c1cc(F)cc(F)c1: < 5.70
- C[C@@H]1CN(c2ncnc3c2c(C(F)(F)F)cn3-c2cc(F)cc(F)c2)[C@@H](C)CN1C(=O)OC(C)(C)C: > 7.00
- C[C@@H]1COCCN1c1cn(-c2cccc(C#N)c2)c2ncnc(N3CCN(C(=O)OC(C)(C)C)C[C@@H]3C)c12: 6.30 to 7.00
- C[C@H]1CN(C(=O)OC(C)(C)C)CCN1c1ncnc2c1c(C1CC1)cn2C1CCCC(F)(F)C1 (stereo partly shown): 5.70 to 6.30

Then this compound:
Summary: C[C@@H]1CN(c2ncnc3c2c(C2CC2)cn3-c2ccc(F)c(F)c2)CCN1C(=O)OC(C)(C)C , TRPML1 (Homo sapiens), pEC50 = > 7.00

====

Measured pEC50 accompanies every entry in the list below.
molecular target: TRPML2 (Homo sapiens); construct: expressed in transfected cells; assay: Fluorescent TRPML2 assay (performed as for TRPML1, substituting the TRPML2 subtype); format: cell-based
Sequence (Q8IZK6 whole entry): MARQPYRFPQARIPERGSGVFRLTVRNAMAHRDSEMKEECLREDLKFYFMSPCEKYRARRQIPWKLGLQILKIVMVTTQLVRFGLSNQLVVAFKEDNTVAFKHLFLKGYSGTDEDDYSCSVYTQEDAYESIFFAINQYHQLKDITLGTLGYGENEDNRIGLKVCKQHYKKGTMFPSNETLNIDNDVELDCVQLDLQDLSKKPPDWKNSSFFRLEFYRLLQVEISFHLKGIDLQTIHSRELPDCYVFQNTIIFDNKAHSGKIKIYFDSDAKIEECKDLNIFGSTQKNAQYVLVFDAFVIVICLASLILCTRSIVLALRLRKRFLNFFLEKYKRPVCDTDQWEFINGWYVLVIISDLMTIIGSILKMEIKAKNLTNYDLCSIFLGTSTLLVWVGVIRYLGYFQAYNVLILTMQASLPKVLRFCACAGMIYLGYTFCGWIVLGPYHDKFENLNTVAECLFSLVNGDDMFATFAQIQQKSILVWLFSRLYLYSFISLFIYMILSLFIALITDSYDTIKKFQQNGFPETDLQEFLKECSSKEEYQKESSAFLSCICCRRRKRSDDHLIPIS
pEC50: −log10 of the molar value.

Known results for compounds:
- C[C@@H]1CN(c2ncnc3c2c(C(F)F)cn3-c2cccc(Cl)c2)[C@@H](C)CN1C(=O)OC1(C)CC1: < 5.70
- [2H]C([2H])([2H])C(OC(=O)N1C[C@H](C)N(c2ncnc3c2c(C(F)(F)F)cn3-c2cc(C#N)ccn2)C[C@H]1C)(C([2H])([2H])[2H])C([2H])([2H])[2H]: > 7.00
- C[C@@H]1CN(c2ncnc3c2c(C(F)(F)F)cn3-c2cc(C#N)ccn2)[C@@H](C)CN1C(=O)OC1CCC1: > 7.00

The compound listed as C[C@@H]1CN(c2nccc3c2c(C2CC2)cn3-c2cccc(F)c2)CCN1C(=O)OC(C)(C)C shows pEC50 equal to > 7.00

The compound listed as CCc1ccnc(-n2cc(C(F)(F)F)c3c(N4C[C@@H](C)N(C(=O)OC(C)(C)C)C[C@@H]4C)ncnc32)c1 shows pEC50 equal to 5.70 to 6.30

The compound listed as C[C@@H]1CN(c2ncnc3c2c(OC(F)F)cn3-c2cc(C#N)ccn2)[C@@H](C)CN1C(=O)OC(C)(C)C shows pEC50 equal to > 7.00

====

target: TRPML1 (Homo sapiens, UniProt Q9GZU1); assay: Fluorescent TRPML1 assay (Fluo4-AM calcium fluorescence in doxycycline-induced HEK-293 Trex cells); format: cell-based; conditions: fluorescent calcium assay
Sequence (Q9GZU1 whole entry L15A/L16A/L577A/L578A, form open): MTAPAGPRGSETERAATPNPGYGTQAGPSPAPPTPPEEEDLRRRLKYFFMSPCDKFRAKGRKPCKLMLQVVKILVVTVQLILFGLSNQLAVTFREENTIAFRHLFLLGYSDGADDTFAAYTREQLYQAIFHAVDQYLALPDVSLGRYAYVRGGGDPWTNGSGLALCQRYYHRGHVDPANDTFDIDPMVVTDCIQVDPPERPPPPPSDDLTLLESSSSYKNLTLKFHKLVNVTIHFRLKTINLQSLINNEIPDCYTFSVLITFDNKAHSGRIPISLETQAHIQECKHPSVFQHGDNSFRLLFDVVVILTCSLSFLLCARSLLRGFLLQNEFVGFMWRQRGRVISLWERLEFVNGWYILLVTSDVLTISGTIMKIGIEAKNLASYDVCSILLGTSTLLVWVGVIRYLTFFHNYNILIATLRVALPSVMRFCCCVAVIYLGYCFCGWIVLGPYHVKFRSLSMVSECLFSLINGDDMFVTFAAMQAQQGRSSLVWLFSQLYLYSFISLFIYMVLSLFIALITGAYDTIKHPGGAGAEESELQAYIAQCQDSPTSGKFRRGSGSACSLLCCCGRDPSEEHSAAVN
REPORTED_METRIC: EC50

Known results for compounds:
* C[C@@H]1CN(c2ncnc3c2c(N(C)C)cn3-c2cc(C#N)ccn2)CCN1C(=O)OC(C)(C)C | < 100 nM
* C[C@@H]1CN(c2ncnc3c2c(-c2ccccn2)cn3-c2cccc(Cl)c2)[C@@H](C)CN1C(=O)OC(C)(C)C | < 100 nM
* C[C@@H]1CN(c2ncnc3c2c(-c2ccccc2F)cn3-c2cc(C#N)ccn2)[C@@H](C)CN1C(=O)OC(C)(C)C | < 100 nM

Summary: C[C@H]1CN(C(=O)OC(C)(C)C)CCN1c1ncnc2c1c(-c1nccnc1C#N)cn2-c1cccc(Cl)c1 , TRPML1 (Homo sapiens, UniProt Q9GZU1), EC50 = 100 to 500 nM

Summary: Cc1ccc(Cl)cc1-n1cc(-c2cnccn2)c2c(N3CCN(C(=O)OC(C)(C)C)CC3C)ncnc21 (centres unmarked) , TRPML1 (Homo sapiens, UniProt Q9GZU1), EC50 = 500 to 2000 nM

Summary: CC(C)(C)OC(=O)N1CCN(c2ncnc3c2c(C2CC2)cn3-c2cc(F)cc(F)c2)C[C@H]1CF (single isomer, unassigned) , TRPML1 (Homo sapiens, UniProt Q9GZU1), EC50 = 100 to 500 nM

Summary: C[C@H]1CN(C(=O)OC(C)(C)C)CCN1c1ncnc2c1c(-c1cccnc1)cn2-c1cccc(F)c1 , TRPML1 (Homo sapiens, UniProt Q9GZU1), EC50 = 100 to 500 nM

Summary: C[C@H]1CN(C(=O)OC(C)(C)C)CCN1c1ncnc2c1c(-c1ccncc1)cn2-c1cc(F)cc(F)c1 , TRPML1 (Homo sapiens, UniProt Q9GZU1), EC50 = 100 to 500 nM

Summary: COc1cc(OC)cc(-n2cc(C3CC3)c3c(N4CCN(C(=O)OC(C)(C)C)C[C@@H]4C)ncnc32)c1 , TRPML1 (Homo sapiens, UniProt Q9GZU1), EC50 = 100 to 500 nM
